Value source: the supplement of paper PMC9170038

Test system: MS2 coat protein
ASSAY INFO: apparent KD of MS2 coat protein; designed switch direction (-1 OFF switch, 1 ON switch): -1; higher = weaker reporter binding
ASSAY CONTEXT: input ligand: none
Hi all, reminder that labels come from apparent KD of MS2 coat protein, split as bottom bin = under 40 nM, middle bin = from 40 nM up to 60 nM, top bin = 60 nM and over

Observe how each entry below is paired with its result.
SEQUENCE RECORD | CLASS ASSIGNMENT
AGCCUGCAAGUAAGGAUAUGAAGUUAAAAGAACGGUCAGAAGGUACUUGAGGAUCACCCAAGUACGGGAGCGUG [Teuscema] (Eterna round: R97, puzzle: Brourd's mod of Exclusion 4) | bottom bin
AGUAACUCAUGAGGAUAUCACAUGAGGAUCACCCAUGUAUAGCGCGCUAUGCUAGUCCUCGUAUAUGAGAAGGUAUGAUAAAUG [JL ViennaUCT Quve mod 3] (Eterna round: R96, puzzle: Exclusion NG 2) | bottom bin
UCUUUCAUUGUGAGGAUAUGCCCAAAUAAAAGCGGGCAGAAGGCACAUGAGGAUCACCCAUGUCCUGCGGUUAU [salish99_bmx4_r4_150] (Eterna round: R97, puzzle: Brourd's mod of Exclusion 4) | middle bin
CUUAAUUGUGACAUGGGUGACAUGAGGAUCACCCAUGUCACAAGCUUUUUGUUCGUCUUAUAAUUAACCCAUGUCAC [Stov1/13-B3] (Eterna round: R97, puzzle: Sensor, turn-off variant 1) | middle bin
AGCAUGCAGCAGGAUAUCGAUCCGCAGUAUGAUCGAGAAGGGCUGACAUGAGGAUCACCCAUGUGCGUCCUAGG [jl-ex6-4.42 ViennaUCT mod] (Eterna round: R97, puzzle: Exclusion 6) | top bin
GGAUAAAACUGAGGAUAUACGCACCACUAACGAGUAGAAGGCAGACAUGAGGAUCACCCAUGUGAGUUCUCAAUAAGAAACACG [Prohibition 66 - Jieux - Exclusion NG 1] (Eterna round: R96, puzzle: Exclusion NG 1) | top bin

Hi there! Could you help me figure out the category for UUUCAUCAUGUAGGAUAUGUGUGGCGAAGCUAUACAGAAGGACAUGAGGAUCACCCAUGUUCUUGCGUCUGCGUACAGAUGCAA [14th something] (Eterna round: R96, puzzle: Exclusion NG 1) please?
middle bin
